// provenance: PubChem BioAssay (NCI)

System: MCF7 breast
Assay: NCI-60 one-dose screen, 48 h
Conditions: 10 µM unless noted
Protocol: Growth inhibition of the MCF7 human tumor cell line is measured as a screen for anti-cancer activity. Cells are grown in 96 well plates and exposed to the test compound for 48 hours. Compounds are tested at a single concentration, which is 10^-5 M for most compounds. The reported endpoint is percent growth (GI% or GIPRCNT), where numbers from 0 - 100% represent growth inhibition, and numbers from -100% - 0 represent cell death. For example, a value of 40 represents 60% growth inhibition. […]
About 83,000 compounds went through this panel and 20% of them were active in at least one assay; those are over-represented in the sample as a whole. Calls of active or inactive are those of the source. How the source made its calls: active means growth percent below 10; inactive means the rest.
Outcome (select one): yes (1) = active, no (0) = inactive

Data request: Please indicate how the test categorized `N#Cc1c(-c2ccc(Cl)cc2)nc(NN=Cc2cccc(Cl)c2)nc1N1CCOCC1` .
Data returned: no (0)

Data request: Outcome? `CC1=NN(c2cccc(Cl)c2)C(=O)/C1=C\C=C\c1ccccc1`
Data returned: no (0)

Data request: Assay result, entry `COc1ccc(CNc2c3ccccc3nc3ccccc23)cc1OC` — outcome?
Data returned: yes (1)

Data request: Each molecule tested received a call. Report the one for CCC(C)C(N)C(=O)NC(CC(C)C)C(=O)N1CCCC1C(=O)NC(Cc1c[nH]c2ccccc12)C(=O)NC(CCCCN)C(=O)NC(Cc1c[nH]c2ccccc12)C(=O)N1CCCC1C(=O)NC(Cc1c[nH]c2ccccc12)C(=O)NC(Cc1c[nH]c2ccccc12)C(=O)N1CCCC1C(=O)NC(Cc1c[nH]c2ccccc12)C(=O)NC(CCCNC(=N)N)C(=O)NC(CCCNC(=N)N)C(N)=O (centres undefined) .
Data returned: no (0)

Data request: Tell me the recorded outcome of this test for `CC/C(=C(/c1ccc(Cl)cc1)c1ccc(OCCN(CC)CC)cc1)c1ccc(OC)cc1` .
Data returned: no (0)

Data request: Assay outcome for `COc1cc(/C=C2\CN(S(=O)(=O)c3ccc(C)cc3)C/C(=C\c3cc(CN4CCCC4)c(O)c(OC)c3)C2=O)cc(CN2CCCC2)c1O` : what was it?
Data returned: yes (1)

Data request: Recorded test outcome, item `CC(C)CCc1nc2ccc(NCc3ccc(OCCN4CCC(C)CC4)cc3)cc2[nH]1`
Data returned: no (0)

Data request: Any idea what this test logged for COC1CC(O)C2=C(CC3C(/C(C)=C\CC=C(C)C)CCC3(C)O2)C1=O (centres undefined) ?
Data returned: no (0)

Data request: Could you kindly confirm the outcome this assay logged for `C[C@H]1c2ccccc2CN1CCCOc1cc2c(cc1OCC1CC1)C1(CCCC1)C(N)=N2` ?
Data returned: no (0)

###

Tested on: LOX IMVI melanoma
Assay: NCI-60 one-dose screen, 48 h (100 = growth as untreated, 0 = no growth, -100 = all killed)
Settings: 10 µM unless noted
This is part of a sample that, as a whole, favours compounds with a hit. Of some 83,000 tested, about 20% had one in any assay.
Give measured growth for each item. Keep answers brief.
Respond numerically; units are % and should not be typed.

Data request: Form field: reported growth of CCCN1C(=O)N(CCC)C2C1NC(=S)N2/N=C/C=C/c1ccccc1OC (centres undefined)
Data returned: 41

Data request: Can you look up the measured growth of CN(C)CC1C(=O)O[C@H]2[C@H]1CC/C(COC(=O)NCc1ccc(Cn3c(=O)sn(CCCI)c3=O)cc1)=C\CC[C@@]1(C)O[C@@H]21 (some centres undefined) for me?
Data returned: -75.8

Data request: What does the record list as growth for `C=CC(=O)NCc1cccc(Nc2ncc(Br)c(NCCCNC(=O)C3CCC3)n2)c1` ?
Data returned: -41.1

Data request: I'd like to know its growth. The molecule in question is `CCN1CCN(c2cc(C(=O)Nc3cccc(Nc4ccc5c(OC)cccc5n4)c3)cc(C(F)(F)F)c2)CC1`
Data returned: -94.1

###

Test system: NCI-H322M lung
Assay: NCI-60 one-dose screen, 48 h
Conditions: 10 µM unless noted
This is part of a sample that, as a whole, favours compounds with a hit. Of some 83,000 tested, about 20% had one in any assay. Activity calls are given as the source filed them. The calls were made as follows: active = growth percent below 10; inactive = the rest.
Could you please pick one outcome from this set? yes (active), no (inactive)

Data request: GET /call?item= `COC(=O)c1sc(-c2ccc(C)cc2)cc1O` returns the recorded outcome of this test.
Data returned: no

Data request: # outcome recorded in this test, key = `CC(C)(C)n1cc(-c2ccnc(NCCNS(=O)(=O)c3ccc(C(F)(F)F)cc3)c2)c(-c2ccccc2)n1`
Data returned: no

Data request: Test call for this compound, please: `COC(=O)[C@@H](Cc1c[nH]c2ccccc12)NC(=O)[C@H](Cc1ccccc1)NCc1ccncc1`
Data returned: no

Data request: Would you mind telling me which call this test gave `COc1cc2nc3cc([N+](=O)[O-])ccc3c(NCCCNCCO)c2cc1OC` ?
Data returned: yes

Data request: Assay result, entry `CN(C)c1ccc(Cc2cc(-c3ccccc3)nn(C/C(=N/O)c3ccccc3)c2=O)cc1` — outcome?
Data returned: no

Data request: Which outcome did this test record for the compound `Cn1nc(-c2ccc(Cl)cc2)nc2c(=O)n(C)c(=O)nc1-2` ?
Data returned: yes

Data request: Name the outcome recorded for `N=C(N)c1ccc(-c2ccc(-c3ccc(Cl)cc3Cl)s2)nc1` in the assay.
Data returned: no

Data request: What did this assay record as the result for `Cc1ccc(Nc2cc(N)nc(N)n2)cc1` ?
Data returned: no

Data request: For this compound, state the assay outcome: `Nc1c(C(=O)c2ccc(Cl)cc2)sc(Nc2ccccc2)c1-c1nc2ccccc2s1`
Data returned: no

Data request: So what was the verdict on `CC(C)=CC(=O)C1C(=O)c2ccccc2C1=O` in this test?
Data returned: no

Data request: // param item: C#CCOc1ccc(C2=NN(CCCC)C3N=C(Cl)c4ncn(CCCC)c4N23)cc1OCC#C (centres undefined) ; yields the recorded call
Data returned: no

Data request: Any idea what this test logged for `CCCNNC(=O)c1ccc(CNC(=O)/C=C/c2ccccc2)cc1` ?
Data returned: no

Data request: Write down the call the test reported for this compound. Item: `CCN1CCN(c2nc(NNC(=O)c3ccc(OC)cc3)nc(N3CCN(C(c4ccccc4)c4ccccc4)CC3)n2)CC1`
Data returned: no

Data request: What classification did `CCOC(=O)c1c2c(n3ccc(NC(=O)CCN4CCCC4)cc13)C(=O)c1ncccc1C2=O` end up with in this test?
Data returned: yes

Data request: Called result for `CC(C)(C)c1ccc(C(=O)Nc2sc3c(c2C#N)CCC(=O)C3)cc1`
Data returned: no

Data request: Hey, what did the test say about `O=C(/C=C/c1cccc([N+](=O)[O-])c1)c1ccc(Nc2nc(Nc3ccc(F)cc3)nc(Nc3ccc(Cl)cc3)n2)cc1` ?
Data returned: no

Data request: Please indicate how the test categorized `C=CC(=O)Nc1ccc2ncnc(Nc3cccc(NS(=O)(=O)CCC)c3Cl)c2c1` .
Data returned: no

Data request: Called result for CCCCCC(C)(O)C(C(=O)O)c1ccccc1 (centres undefined)
Data returned: no

Data request: Can you look up the reported call for `Nc1ncc(-c2ccc3ncnc(N4CCc5cc(F)c(Cl)cc54)c3c2)cc1C(F)(F)F` for me?
Data returned: no

Data request: // outcome(item) with item = CCCN1C(=O)N(CCC)C2C1NC(=S)N2/N=C/C=C/c1ccccc1OC (centres undefined)
Data returned: no

Data request: I would be grateful if you could indicate the recorded call for `C=C(C)[C@@H]1CCC[C@]2(C(=O)OC)CC[C@]3(C)[C@@H](CC[C@@H]4[C@@]5(C)CCCNC(C)(C)[C@@H]5CC[C@]43C)[C@@H]12` .
Data returned: no

Data request: Call for entry `N=C(N)c1ccc(-c2ccc(-c3ccccc3)s2)nc1` :
Data returned: no

Data request: In this assay, the call recorded for `CC(C)c1nc(N(C)S(C)(=O)=O)nc(-c2ccc(F)cc2)c1/C=C/C(=O)C[C@@H](O)CC(=O)O` was what?
Data returned: no

Data request: Tell me the recorded outcome of this test for `Cc1ccc(Nc2nc(N)nc(N)c2N=O)cc1Cl` .
Data returned: no

Data request: I would be grateful if you could indicate the recorded call for `C#Cc1cccc(Nc2ncnc3ccc(-c4cnc(Cl)c(NS(C)(=O)=O)c4)cc23)c1` .
Data returned: yes

Data request: Dear colleague, could you share the recorded outcome for `COc1ccc(NC(=O)CSc2oc(-c3ccccc3)nc2S(=O)(=O)c2ccc(Cl)cc2)c(OC)c1` when you have a moment?
Data returned: no

Data request: Can you look up the reported call for C/C=C(/C)C(=O)O[C@@H]1CC(C)(C)CC2C34OC(=O)[C@@]21CC[C@@]3(C)[C@]1(C)CCC2C(C)(C)C(=O)CC[C@]2(C)C1C[C@@H]4O (some centres undefined) for me?
Data returned: no

Data request: Name the outcome recorded for O=C1OCC2=C1C(c1cccc(F)c1)c1cc3c(cc1N2CCO)CCC3 (centres undefined) in the assay.
Data returned: no

Data request: Hi, do you know how N#CC1=C(N)Oc2c(ccc3ccccc23)C1c1cc2ccccc2n2nnnc12 (centres undefined) came out in this test?
Data returned: no

Data request: In this assay, the call recorded for `O=C1/C(=C/c2ccc(-c3ccc(Cl)cc3)o2)SC(=S)N1CCc1ccc(O)cc1` was what?
Data returned: no

Data request: Outcome logged for `O=c1ccc2c(ccc3ncccc32)o1` in this assay:
Data returned: no

Data request: Which result was noted for this compound in the test: `CC1=C2[C@@H](CC1)[C@]1(C)O[C@@](C(C)C)(C[C@H]1OC(=O)CO)[C@H]2OC(=O)CCCc1ccccc1`
Data returned: no

Data request: Called result for `CNC(=O)c1cc(Oc2ccc3nc(NC(=O)Nc4ccc(F)cc4F)sc3c2)ccn1`
Data returned: no

Data request: Which outcome was entered for the compound `O=S(=O)(Nc1ccc(Br)cc1)c1ccc(-c2cnc(C3CC3)o2)cc1` in this test?
Data returned: no

Data request: Name the outcome recorded for `COc1ccc2c(O)cc3c(c2c1)[C@H](CCl)CN3C(=O)c1cc2cc(NC(=O)CCN3CCOCC3)ccc2[se]1` in the assay.
Data returned: yes

Data request: Which outcome was assigned to `COc1cccc(C(=O)Nc2cccc(NC(=O)c3ccccn3)c2)c1` in this test?
Data returned: no

Data request: Answer briefly: the call reported for COc1cc(C2CC(c3cccc(Nc4ccncc4)c3)=Nc3c(N)ncnc3N2)cc(OC)c1OC (centres undefined) in this assay.
Data returned: no

Data request: So what was the verdict on `O=C1NCCS(=O)(=O)/C1=C\C=C\c1cccc(C(F)(F)F)c1` in this test?
Data returned: no

Data request: Record lookup: outcome of this test for `CC(C)(C)CC(C)(C)Nc1c(-c2c(O)c3ccccc3oc2=O)nc2sccn12` ?
Data returned: no
